# Tested Target: T1, recombinant LILRA1 ECD (human, UniProt O75019 17-461)
# T1 construct: whole canonical entry named; also called LILA1
# T1 sequence (O75019 17-461 limits assumed): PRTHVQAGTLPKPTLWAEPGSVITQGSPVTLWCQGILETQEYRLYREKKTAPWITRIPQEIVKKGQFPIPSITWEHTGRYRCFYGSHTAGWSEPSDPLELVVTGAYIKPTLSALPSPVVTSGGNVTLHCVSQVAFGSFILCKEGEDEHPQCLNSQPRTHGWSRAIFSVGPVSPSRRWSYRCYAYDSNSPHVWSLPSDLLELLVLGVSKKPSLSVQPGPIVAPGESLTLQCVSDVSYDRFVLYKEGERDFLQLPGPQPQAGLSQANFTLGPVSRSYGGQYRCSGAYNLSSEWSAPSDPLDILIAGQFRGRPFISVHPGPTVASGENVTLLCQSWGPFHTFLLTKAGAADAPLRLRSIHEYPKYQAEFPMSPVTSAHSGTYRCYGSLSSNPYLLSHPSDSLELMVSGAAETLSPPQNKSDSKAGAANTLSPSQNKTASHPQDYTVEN
# Measurement Protocol: BLI, IgG on AHC sensor, ECD in solution
Measured Parameter: pKd
// returns pKd (minus log10 of molar concentration), number only

Please review the entries below; each comes with its answer.
A-003 (antibody, V domains shown, tested as IgG; also called parental antibody A-003) VH: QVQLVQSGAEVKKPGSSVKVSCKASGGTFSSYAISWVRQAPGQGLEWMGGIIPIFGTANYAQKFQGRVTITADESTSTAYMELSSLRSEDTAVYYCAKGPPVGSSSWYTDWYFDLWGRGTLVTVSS VL: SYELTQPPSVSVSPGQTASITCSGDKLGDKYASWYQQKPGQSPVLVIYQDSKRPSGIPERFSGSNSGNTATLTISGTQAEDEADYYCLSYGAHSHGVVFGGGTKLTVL : 6.47
A-030 (antibody, V domains shown, tested as IgG) VH: QVQLVQSGAEVKKPGSSVKVSCKASGGSFQSYAFSWVRQAPGQGLEWMGGIVPIYYTATYAQKFQGRVTITADESTSTAYMELSSLRSEDTAVYYCAKGPPVGSSSWYTDWYFDLWGRGTLVTVSS VL: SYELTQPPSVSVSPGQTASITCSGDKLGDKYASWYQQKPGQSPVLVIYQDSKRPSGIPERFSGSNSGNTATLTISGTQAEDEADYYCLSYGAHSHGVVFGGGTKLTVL : 7.20
A-047 (antibody, V domains shown, tested as IgG) VH: QVQLVQSGAEVKKPGSSVKVSCKASGYTFSKSAMSWVRQAPGQGLEWMGGIVPKFHTSVYAQKFQGRVTITADESTSTAYMELSSLRSEDTAVYYCAKGPPVGSSSWYTDWYFDLWGRGTLVTVSS VL: SYELTQPPSVSVSPGQTASITCSGDKLGDKYASWYQQKPGQSPVLVIYQDSKRPSGIPERFSGSNSGNTATLTISGTQAEDEADYYCSLYGAGHTVVFGGGTKLTVL : 6.89
A-038 (antibody, V domains shown, tested as IgG) VH: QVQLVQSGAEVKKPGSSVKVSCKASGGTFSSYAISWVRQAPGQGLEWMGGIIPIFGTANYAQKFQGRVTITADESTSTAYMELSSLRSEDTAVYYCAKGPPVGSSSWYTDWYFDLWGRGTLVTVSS VL: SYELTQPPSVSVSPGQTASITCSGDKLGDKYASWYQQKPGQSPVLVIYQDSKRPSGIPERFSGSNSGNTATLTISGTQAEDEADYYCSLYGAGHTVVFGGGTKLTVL : 6.68

Fill in the blank: the reported pKd of A-017 (antibody, V domains shown, tested as IgG) VH: QVQLVQSGAEVKKPGSSVKVSCKASGGTFSSYAISWVRQAPGQGLEWMGGIIPYFSLANYAPKFQGRVTITADESTSTAYMELSSLRSEDTAVYYCAKDLGTYSSGWPYYYGMDVWGQGTTVTVSS VL: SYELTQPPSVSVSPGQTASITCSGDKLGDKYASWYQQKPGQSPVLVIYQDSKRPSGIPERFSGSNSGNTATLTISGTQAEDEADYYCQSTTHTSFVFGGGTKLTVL is ____.
6.23
